B1: HDV Ribozyme (parent)
chain: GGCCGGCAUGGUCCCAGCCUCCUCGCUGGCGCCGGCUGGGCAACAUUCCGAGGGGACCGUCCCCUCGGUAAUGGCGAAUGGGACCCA

Variants of: B1
Experiment: self-cleavage, relative activity (ratio to wild type); higher = more cleavage; co-transcriptional
Values of self-cleavage greater than or equal to 0.3 map to yes; values below map to no.

Query: Record C22U C62U ; criterion: self-cleavage no lower than 0.3. Met?
Response: yes

Query: Record G34A G50C ; criterion: self-cleavage no lower than 0.3. Met?
Response: no

Query: Record C4A U27A ; criterion: self-cleavage no lower than 0.3. Met?
Response: no

Query: Record C19U G59C ; criterion: self-cleavage no lower than 0.3. Met?
Response: no

Query: Record C75U G82C ; criterion: self-cleavage no lower than 0.3. Met?
Response: no

Query: Record C22U G82U ; criterion: self-cleavage no lower than 0.3. Met?
Response: no

Query: Record A8U G17A ; criterion: self-cleavage no lower than 0.3. Met?
Response: yes

Query: Record U20G U47G ; criterion: self-cleavage no lower than 0.3. Met?
Response: no

Query: Record U20C U47A ; criterion: self-cleavage no lower than 0.3. Met?
Response: no

Query: Record A16G C75A ; criterion: self-cleavage no lower than 0.3. Met?
Response: no

Query: Record G74A A78U ; criterion: self-cleavage no lower than 0.3. Met?
Response: no

Query: Record C58A C63G ; criterion: self-cleavage no lower than 0.3. Met?
Response: yes

Query: Record A42G A70C ; criterion: self-cleavage no lower than 0.3. Met?
Response: yes

Query: Record G17U G55C ; criterion: self-cleavage no lower than 0.3. Met?
Response: yes

Query: Record G2U G74U ; criterion: self-cleavage no lower than 0.3. Met?
Response: no

Query: Record C13U C30A ; criterion: self-cleavage no lower than 0.3. Met?
Response: no

Query: Record C15A C44U ; criterion: self-cleavage no lower than 0.3. Met?
Response: yes

Query: Record C22U G28A ; criterion: self-cleavage no lower than 0.3. Met?
Response: no

Query: Record C21U A51G ; criterion: self-cleavage no lower than 0.3. Met?
Response: no

Query: Record C18G C86U ; criterion: self-cleavage no lower than 0.3. Met?
Response: no

Query: Record U47G C84A ; criterion: self-cleavage no lower than 0.3. Met?
Response: yes

Values compiled from the RNAGym collection of RNA variant scans (doi:10.7554/elife.80360).
